# measurementTarget: UGT2B15 (Homo sapiens, UniProt P54855)
# Sequence (P54855 whole entry): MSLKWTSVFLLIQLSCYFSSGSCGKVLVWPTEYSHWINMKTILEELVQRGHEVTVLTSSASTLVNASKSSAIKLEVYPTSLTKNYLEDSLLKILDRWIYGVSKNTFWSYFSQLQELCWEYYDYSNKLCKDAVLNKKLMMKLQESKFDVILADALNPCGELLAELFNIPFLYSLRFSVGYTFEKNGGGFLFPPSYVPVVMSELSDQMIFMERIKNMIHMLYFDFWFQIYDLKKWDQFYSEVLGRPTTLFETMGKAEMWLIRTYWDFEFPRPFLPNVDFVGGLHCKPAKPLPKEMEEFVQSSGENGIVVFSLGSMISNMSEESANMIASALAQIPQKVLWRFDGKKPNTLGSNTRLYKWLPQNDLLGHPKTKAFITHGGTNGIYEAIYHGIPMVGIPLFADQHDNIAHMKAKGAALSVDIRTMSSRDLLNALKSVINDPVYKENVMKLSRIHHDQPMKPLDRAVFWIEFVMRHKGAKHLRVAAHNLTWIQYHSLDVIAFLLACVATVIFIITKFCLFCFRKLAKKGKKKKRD
# protocolDetails: Inhibition of human recombinant UGT2B15 at 25 uM by fluorescence spectroscopy
# Set-up: scale not given: the % may be the effect or the level left
# conditionSet: read-out: Activity
measuredProperty: activity at 25 µM (%)

CC1(C)CCC[C@]2(C)[C@@H]([C@@H](O)c3ccccc3)[C@H]3CC[C@@H]2[C@H]31    30

* * *

# measurementTarget: UGT2B4 (Homo sapiens)
# Sequence (P06133 whole entry): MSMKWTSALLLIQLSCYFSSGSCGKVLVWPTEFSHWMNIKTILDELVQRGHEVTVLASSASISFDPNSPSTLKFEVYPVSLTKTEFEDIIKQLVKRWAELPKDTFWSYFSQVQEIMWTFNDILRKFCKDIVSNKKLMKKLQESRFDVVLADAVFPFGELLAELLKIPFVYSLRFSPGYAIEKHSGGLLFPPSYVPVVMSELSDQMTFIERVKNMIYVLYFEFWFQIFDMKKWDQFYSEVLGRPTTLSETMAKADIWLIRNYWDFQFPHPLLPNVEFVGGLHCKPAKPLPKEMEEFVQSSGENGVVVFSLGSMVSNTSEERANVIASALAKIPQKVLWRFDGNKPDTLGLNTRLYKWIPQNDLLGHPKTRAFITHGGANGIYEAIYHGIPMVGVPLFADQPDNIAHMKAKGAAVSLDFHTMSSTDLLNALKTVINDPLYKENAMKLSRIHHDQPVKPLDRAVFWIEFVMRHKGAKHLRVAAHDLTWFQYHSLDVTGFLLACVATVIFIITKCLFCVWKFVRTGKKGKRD
# protocolDetails: Inhibition of human recombinant UGT2B4 at 25 uM by fluorescence spectroscopy
# Parameters: scale not given: the % may be the effect or the level left
# conditionSet: read-out: Activity
measuredProperty: activity at 25 µM (%)

CC1(C)CCC[C@]2(C)[C@@H]([C@@H](O)c3ccccc3)[C@H]3CC[C@@H]2[C@H]31    30

Cited source: ChEMBL document CHEMBL1143068
